Data provenance: paper PMC5540273

Test system: PIK3CA;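 also: KINOMEscan kinase panel screen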
RUN_CONDITIONS: concentration: 1 μM,replicates: in singlicate; n = 1
Measured %Inh, listed per entry.
Write the answer as a number in %, unit excluded.

- COMPOUND: "Cc1occc1-c1nc(N)c(OC[C@@H](N)Cc2c[nH]c3ccccc23)cc1-c1cc2c(C)n[nH]c2cn1"
  UNIT_SPEC: "%"
  %Inh: 0

Consider the compound CCn1c(-c2nonc2N)nc2c(C#CC(C)(C)O)nc(OCCN)cc21.Cl.Cl . State its measured %Inh.
0

Consider the compound CCN(CC)CCCCNc1ncc2cc(-c3c(Cl)cccc3Cl)c(NC(=O)NC(C)(C)C)nc2n1 . State its measured %Inh.
8

Consider the compound Cc1cc2cn[nH]c2cc1-c1cccc2c(N)c(C(N)=O)nnc12 . State its measured %Inh.
0

Consider the compound O=C(NCCNc1ccnc(NCc2ccc(F)cc2)n1)c1cc2ccccc2s1 . State its measured %Inh.
0

Consider the compound C[C@@H]1CCN(C(=O)CC#N)C[C@@H]1N(C)c1ncnc2[nH]ccc12 . State its measured %Inh.
0

Consider the compound C=CC(=O)Nc1cc2c(Nc3ccc(F)c(Cl)c3)ncnc2cc1OCCCN1CCOCC1 . State its measured %Inh.
0

Consider the compound Cl.Cl.Nc1nc(-c2ccc3c(N)n[nH]c3c2)cc(N2CCCC(NC(=O)c3ccccc3)C2)n1 (stereo not drawn) . State its measured %Inh.
14

Consider the compound CN(C)CC(O)COc1ccc(Nc2nccc(-c3cnn4nc(N5CCOCC5)ccc34)n2)cc1 (stereo not drawn) . State its measured %Inh.
33
